Listing of entries alongside the reported protein stability index.
B1: TLE6 (parent)
chain: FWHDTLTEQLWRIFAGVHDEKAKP

variants of: B1; test: protein stability index of a GFP-peptide fusion (GPS, HEK-293T) (PSI 1-6); higher = more stable; conditions: c terminus: a fixed tail appended;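 note: lentivirally expressed fusions sorted by FACS into six bins by GFP to DsRed ratio, PSI derived from sequencing read proportions per bin multiplied by bin number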
// print number alone

Worked examples follow.
H3P
2.41
F14L
1.8
F1V
1.8
H18G
1.79

Query: Look at this variant and give its reported protein stability index. K21D
Response: 2.6

Query: Look at this variant and give its reported protein stability index. W11V
Response: 1.56

Query: Look at this variant and give its reported protein stability index. D19S
Response: 1.79

Query: Look at this variant and give its reported protein stability index. D19R
Response: 2.35

Query: Look at this variant and give its reported protein stability index. F1T
Response: 2.01

Query: Look at this variant and give its reported protein stability index. F1D
Response: 2.17

Query: Look at this variant and give its reported protein stability index. W11P
Response: 3.12
